Target: human adrenergic-α2B receptor (Homo sapiens, UniProt P18089)
Construct: expressed in transfected cells; membrane preparation
Sequence (P18089 1-450): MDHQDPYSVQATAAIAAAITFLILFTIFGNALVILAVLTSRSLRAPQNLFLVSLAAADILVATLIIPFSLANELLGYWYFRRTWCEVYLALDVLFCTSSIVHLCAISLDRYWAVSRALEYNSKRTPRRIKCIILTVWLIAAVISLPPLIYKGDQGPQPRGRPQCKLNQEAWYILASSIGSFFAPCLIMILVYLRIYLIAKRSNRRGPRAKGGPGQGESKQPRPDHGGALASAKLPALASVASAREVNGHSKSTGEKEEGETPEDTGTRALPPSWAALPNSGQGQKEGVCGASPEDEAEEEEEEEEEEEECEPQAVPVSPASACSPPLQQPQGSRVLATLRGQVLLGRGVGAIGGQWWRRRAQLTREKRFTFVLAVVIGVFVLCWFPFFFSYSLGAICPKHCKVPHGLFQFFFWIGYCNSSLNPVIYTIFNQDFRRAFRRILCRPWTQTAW
Test: Radioligand binding experiment for α2B-adrenoceptor ([3H]-raulwolscine competition, CHO cell membranes)
Settings: [3H]raulwolscine 1 nM, membranes of CHO cells transfected with human α2B receptor; read-out: pIC50 α2B (converted)
Measured Attribute: IC50 (nM)

>>> observed("O=C1c2ccccc2C(=O)N1CCCn1ncn(CC2CCN(CCOc3ccccc3)CC2)c1=O [compound 82]")
15.8
>>> observed("C/C(=C\\c1ccccc1)CN1CCC(n2ncn(-c3ccc(CN)cc3)c2=O)CC1 [compound 34]")
50.1
>>> observed("C/C(=C\\c1ccccc1)CN1CCC(CCn2ncn(-c3ccc(NCCN(C)C)cc3)c2=O)CC1 [compound 41]")
1.26
>>> observed("C/C(=C\\c1ccccc1)CN1CCC(n2cnn(CCCN3C(=O)c4ccccc4C3=O)c2=O)CC1 [compound 83]")
50.1
>>> observed("COc1ccccc1C1CCN(C(C)C(C)n2ncn(-c3ccc(N4CCN(c5ccc(O)cc5)CC4)cc3)c2=O)C1 (centres unmarked) [compound 55]")
50.1
